Tested on: blackgrass (Alopecurus myosuroides)
Test: Test A postemergence, blackgrass
Assay type: in vivo
Settings: Postemergence, 125 g ai/ha; 0 to 100 scale (0 no effect, 100 complete control)
Parameter: Plant response rating, Blackgrass
No unit in the answer, please; the number alone is enough.

// solved cases for Plant response rating, Blackgrass follow
| Compound | Parameter | Quantitative result |
| --- | --- | --- |
| Cc1cc(C)c(N(S(=O)(=O)C(F)(F)F)S(=O)(=O)C(F)(F)F)cc1C1=NOC(C)(CCl)C1 (stereo not drawn) [Compound 227] | Plant response rating, Blackgrass | 0 |
| Cc1c(C(=O)N2CCOCC2)cc(N(S(=O)(=O)C(F)(F)F)S(=O)(=O)C(F)(F)F)c(C)c1F [Compound 174] | Plant response rating, Blackgrass | 0 |
| Cc1cc(Cl)c(C(=O)N(C)C)cc1NS(=O)(=O)C(F)(F)F [Compound 251] | Plant response rating, Blackgrass | 20 |
| CCN(CC)C(=O)c1cc(NS(=O)(=O)C(F)(F)F)c(C)cc1C [Compound 188] | Plant response rating, Blackgrass | 0 |
| Cc1cc(Cl)c(N(S(=O)(=O)C(F)(F)F)S(=O)(=O)C(F)(F)F)cc1C(=O)N1CCC(Cl)CC1 [Compound 200] | Plant response rating, Blackgrass | 0 |

// recorded Plant response rating, Blackgrass for Cc1cc(C)c(N2CC3(CCOCC3)OC2=O)cc1NS(=O)(=O)C(F)(F)F [Compound 156] : 40

Looking up Cc1cc(F)c(C(=O)N2CC(C)OC(C)C2)cc1NS(=O)(=O)C(F)(F)F (stereo not drawn) [Compound 238] , I found its Plant response rating, Blackgrass recorded as 0

// recorded Plant response rating, Blackgrass for Cc1cc(Cl)c(NS(=O)(=O)C(F)(F)F)cc1C(=O)N1CCOCC1(C)C [Compound 153] : 50

get_value(item= COC1CCCN(C(=O)c2cc(NS(=O)(=O)C(F)(F)F)c(C)cc2C)C1 (stereo not drawn) [Compound 175] , readout=Plant response rating, Blackgrass) returns 0

So for Cc1cc(Cl)c(N(S(=O)(=O)C(F)(F)F)S(=O)(=O)C(F)(F)F)cc1C1=NOC2(CCCCC2)C1 [Compound 217] , the logged Plant response rating, Blackgrass turned out to be 0

* * *

Tested on: kochia (Bassia scoparia)
Assay: Test A1 preemergence, kochia
Assay type: in vivo
Settings: 31 g ai/ha, 0 to 100 scale (0 no effect, 100 complete control)
Parameter: Plant response rating, Kochia
Could you respond with only the numeric value?

Reference set (8 entries):
| Compound | Plant response rating, Kochia |
| --- | --- |
| CCC1CC(c2cc(N(COC(=O)C(C)(C)C)S(=O)(=O)C(F)(F)F)c(C)cc2C)=NO1 (stereo not shown) [Compound 376] | 0 |
| Cc1c(NS(=O)(=O)C(F)(F)F)cc(C(=O)N2CC(C)OC(C)C2)c(C)c1C (stereo not shown) [Compound 328] | 20 |
| CCC1ON=C(c2cc(N(C(=O)OCC(C)C)S(=O)(=O)C(F)(F)F)c(C)cc2C)C1CC (stereo not shown) [Compound 348] | 0 |
| Cc1c(C(=O)N2CCC(Cl)CC2)cc(N(COC(=O)C(C)(C)C)S(=O)(=O)C(F)(F)F)c(C)c1C [Compound 359] | 0 |
| Cc1cc(C)c(-n2nccc(C)c2=O)cc1NS(=O)(=O)C(F)(F)F [Compound 281] | 0 |
| Cc1cc(C)c(C2=NOC3COCC23)cc1NS(=O)(=O)C(F)(F)F (stereo not shown) [Compound 297] | 80 |
| CCc1cc(C)c(NS(=O)(=O)C(F)(F)F)cc1C1=NOC2CCCC12 (stereo not shown) [Compound 305] | 0 |
| COC(=O)OCN(c1cc(C2=NOC3CCCC23)c(C)cc1C)S(=O)(=O)C(F)(F)F (stereo not shown) [Compound 315] | 0 |

Plant response rating, Kochia reading for Cc1cc(C)c(N(S(=O)(=O)C(F)(F)F)S(=O)(=O)C(F)(F)F)cc1N1CCC2(CCC(C(F)(F)F)CC2)C1=O (stereo not shown) [Compound 399] : 0

Record summary for Cc1c(C(=O)N(C)C)cc(NS(=O)(=O)C(F)(F)F)c(Cl)c1F [Compound 320] : reported Plant response rating, Kochia = 20
